# measurement.description: Volume of distribution at steady state in Sprague-Dawley rat at 30 mg/kg, po and 5 mg/kg, iv
# Assay type: ADME, organism-based
# condition.description: in vivo, read-out: Vdss
quantity: Vd (L/kg)
Note: unit L/kg is implicit; provide only the numeric part.

Dear colleague, I am looking for the recorded Vd of the following compound: `CC(=O)NCCc1ccccc1-c1ccc([C@H]2CNCC[C@@H]2c2ccn(C)c(=O)c2)c(Cl)c1.Cl` 25

###

# measured.target: Renin (Homo sapiens, UniProt P00797)
# Sequence (P00797 whole entry): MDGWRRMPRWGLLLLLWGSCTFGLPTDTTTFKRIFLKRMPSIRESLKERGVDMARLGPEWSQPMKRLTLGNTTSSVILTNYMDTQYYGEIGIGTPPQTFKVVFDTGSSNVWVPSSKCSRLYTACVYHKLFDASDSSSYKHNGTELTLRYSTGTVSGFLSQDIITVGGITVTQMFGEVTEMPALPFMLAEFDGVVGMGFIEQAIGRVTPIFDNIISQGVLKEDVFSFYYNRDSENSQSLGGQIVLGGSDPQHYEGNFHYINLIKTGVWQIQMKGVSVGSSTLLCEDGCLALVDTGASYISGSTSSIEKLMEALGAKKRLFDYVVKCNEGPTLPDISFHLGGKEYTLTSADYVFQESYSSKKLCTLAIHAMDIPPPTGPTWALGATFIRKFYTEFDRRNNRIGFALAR
# measurement.description: Inhibition of human recombinant renin using DNP-Lys-His-Pro-Phe-His-Leu-Val-Ile-His-D,L-Amp as substrate after 3 hrs by fluorimetry
quantity: IC50
Give the value; after it, write the unit.

Recorded IC50, per entry:
CC(=O)NCCc1ccccc1-c1ccc([C@H]2CNCC[C@@]23OCc2cc(F)c(F)cc23)c(C)c1 0.17 nM
CCOC(=O)NCCc1ccccc1-c1ccc([C@H]2CNCC[C@@H]2c2ccn(C)c(=O)c2)c(Cl)c1 11 nM
CC(=O)NCCc1ccccc1-c1ccc([C@H]2CNCC[C@@H]2c2cccnc2)c(Cl)c1 1.4 nM
COC(=O)NCCc1ccccc1-c1ccc([C@H]2CNCC[C@@H]2c2ccn(C)c(=O)c2)c(Cl)c1 3.52 nM

Proceed to the following item.
Identify the measured IC50 of `CC(=O)NCCc1ccccc1-c1ccc([C@H]2CNCC[C@]2(O)c2ccc(F)c(F)c2)c(C)c1` for Renin (Homo sapiens, UniProt P00797). 0.5 nM

Values from ChEMBL document CHEMBL1955789
